TEST_TARGET: T1, human CD3 (human, UniProt P07766 23-207; P04234 22-171; P09693 23-182)
T1 construct: whole, on cells; also called CD3 on Jurkat cells; CD3 on human primary T cells
T1 sequence (P07766 23-207, chain 1 of 3): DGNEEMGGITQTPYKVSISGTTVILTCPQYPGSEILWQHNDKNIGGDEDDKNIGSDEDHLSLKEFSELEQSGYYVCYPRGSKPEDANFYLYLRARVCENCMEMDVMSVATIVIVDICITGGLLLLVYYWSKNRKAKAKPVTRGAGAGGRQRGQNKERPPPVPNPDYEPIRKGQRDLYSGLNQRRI
T1 sequence (P04234 22-171, chain 2 of 3): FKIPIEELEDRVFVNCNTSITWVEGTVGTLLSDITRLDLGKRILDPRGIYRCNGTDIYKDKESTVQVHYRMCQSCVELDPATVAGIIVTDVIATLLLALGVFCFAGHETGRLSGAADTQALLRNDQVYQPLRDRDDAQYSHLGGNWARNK
T1 sequence (P09693 23-182, chain 3 of 3): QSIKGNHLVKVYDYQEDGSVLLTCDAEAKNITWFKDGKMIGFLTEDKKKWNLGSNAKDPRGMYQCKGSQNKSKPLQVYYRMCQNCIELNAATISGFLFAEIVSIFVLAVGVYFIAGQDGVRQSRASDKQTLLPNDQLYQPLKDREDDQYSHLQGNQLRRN
METHOD_SUMMARY: flow cytometry, human primary T cells, 25 nM antibody
Measured Human primary T Cell Binding (FOI), listed per entry for reference.
EXPERIMENTAL_ENDPOINT: Human primary T Cell Binding (FOI)

* mAb 304 (antibody, V domains shown, VH and VL only) VH: EVQLLESGGGLVQPGGSRRLSCAASGFTFSSYAMSWVRQAPGKGLEWVSVISGRGDNTNYADSVKGRFTISRENSKNILYLQMNSLRAEDTAVYYCAKKYSYYYYYMDVWGKGTTVTVSS VL: SYELTQPLSVSVALGQTARITCGGNNIGSKDVHWYQQKPGQAPVLVIYRDSNRPSGIPERFSGSNSGNTATLTISRAQAGDEADYYCQVWDSRTAVFGGGTQLTAL | 226
* mAb 306 (antibody, V domains shown, VH and VL only) VH: EVQLLESGGGLVQPGGSLRLSCAASGFTFNSYAMSWVRQAPGRGLEWVSAISGRKSTTYYADSVKGRFTISRDNSKNTLYLQMNSLRAEDTAVYYCAKLWNYYYYYMDVWGKGTTVTVSS VL: SYELTQPLSVSVALGQTARITCGGNNIGSKDVHWYQQKPGQAPVLVIYRDSNRPSGIPERFSGSNSGNTATLTISRAQAGDEADYYCQVWDSSTAVFGGGTQLTAL | 219
